biological target: UniProt Q13233; experiment: radiometric filter-binding kinase assay; conditions: compound 10.0 µM
Sequence (Q13233 whole entry, looked up): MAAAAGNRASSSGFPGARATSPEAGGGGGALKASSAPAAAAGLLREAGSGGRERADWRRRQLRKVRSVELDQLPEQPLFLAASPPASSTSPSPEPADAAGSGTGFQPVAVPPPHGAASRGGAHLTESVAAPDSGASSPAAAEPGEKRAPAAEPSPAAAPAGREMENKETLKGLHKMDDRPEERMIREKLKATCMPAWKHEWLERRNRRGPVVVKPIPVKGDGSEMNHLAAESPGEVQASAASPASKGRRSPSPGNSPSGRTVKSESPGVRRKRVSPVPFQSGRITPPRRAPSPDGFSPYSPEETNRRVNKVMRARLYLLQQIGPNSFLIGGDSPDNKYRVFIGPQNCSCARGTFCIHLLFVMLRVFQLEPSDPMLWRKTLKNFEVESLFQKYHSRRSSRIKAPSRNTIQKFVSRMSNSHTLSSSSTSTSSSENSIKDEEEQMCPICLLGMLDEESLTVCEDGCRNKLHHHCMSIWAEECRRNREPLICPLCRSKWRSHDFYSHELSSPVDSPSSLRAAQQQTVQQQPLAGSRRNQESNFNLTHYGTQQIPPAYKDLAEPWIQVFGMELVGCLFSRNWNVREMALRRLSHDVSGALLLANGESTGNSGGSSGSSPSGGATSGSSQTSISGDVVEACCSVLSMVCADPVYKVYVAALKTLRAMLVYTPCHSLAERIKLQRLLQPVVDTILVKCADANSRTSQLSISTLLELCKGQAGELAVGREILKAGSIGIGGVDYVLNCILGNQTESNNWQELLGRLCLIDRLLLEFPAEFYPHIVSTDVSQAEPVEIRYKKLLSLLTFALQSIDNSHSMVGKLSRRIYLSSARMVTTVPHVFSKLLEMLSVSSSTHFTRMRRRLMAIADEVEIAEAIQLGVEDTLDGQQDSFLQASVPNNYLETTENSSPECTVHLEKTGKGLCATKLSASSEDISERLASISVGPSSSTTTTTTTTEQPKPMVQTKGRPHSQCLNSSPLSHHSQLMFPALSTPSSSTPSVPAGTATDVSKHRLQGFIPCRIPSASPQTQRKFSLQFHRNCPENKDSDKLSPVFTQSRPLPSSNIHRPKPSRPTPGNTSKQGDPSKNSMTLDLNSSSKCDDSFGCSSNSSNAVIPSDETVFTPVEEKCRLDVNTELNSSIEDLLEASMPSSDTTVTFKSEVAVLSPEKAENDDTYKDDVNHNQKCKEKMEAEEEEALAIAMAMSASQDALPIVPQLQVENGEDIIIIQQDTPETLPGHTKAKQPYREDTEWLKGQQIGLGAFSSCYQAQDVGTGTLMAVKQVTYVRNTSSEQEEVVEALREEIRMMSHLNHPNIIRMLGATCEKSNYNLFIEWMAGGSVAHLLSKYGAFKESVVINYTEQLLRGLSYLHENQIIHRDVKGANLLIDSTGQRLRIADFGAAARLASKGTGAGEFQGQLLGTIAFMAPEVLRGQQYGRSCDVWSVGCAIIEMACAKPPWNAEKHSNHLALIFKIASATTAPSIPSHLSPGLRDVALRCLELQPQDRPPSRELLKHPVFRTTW
Catalogue of residual activity readings, one per entry.
Parameter Measured: residual activity (%)

CCn1c(-c2nonc2N)nc2cncc(CNC3CCNCC3)c21
112
O=C(NOCC(O)CO)c1ccc(F)c(F)c1Nc1ccc(I)cc1Cl (stereo not given)
93
CCNc1nc(Nc2cc(F)c(C(=O)N3CCOCC3)cc2OC)ncc1C(F)(F)F
99
Cc1ccc(Sc2cnc(Nc3cccc(Br)n3)s2)cc1C(=O)N1CCN(C(=O)CN)CC1
5
CNc1nc(-c2ccc3c(N)n[nH]c3c2)cc(N2C[C@@H](C(=O)NC3CCCCC3)CC[C@H]2C)n1
104

* * *

Catalogue of residual activity readings, one per entry.
molecular target: EPHB3 (human) (UniProt P54753); test: radiometric filter-binding kinase assay; settings: compound 0.1 µM
Sequence (P54753 whole entry, looked up): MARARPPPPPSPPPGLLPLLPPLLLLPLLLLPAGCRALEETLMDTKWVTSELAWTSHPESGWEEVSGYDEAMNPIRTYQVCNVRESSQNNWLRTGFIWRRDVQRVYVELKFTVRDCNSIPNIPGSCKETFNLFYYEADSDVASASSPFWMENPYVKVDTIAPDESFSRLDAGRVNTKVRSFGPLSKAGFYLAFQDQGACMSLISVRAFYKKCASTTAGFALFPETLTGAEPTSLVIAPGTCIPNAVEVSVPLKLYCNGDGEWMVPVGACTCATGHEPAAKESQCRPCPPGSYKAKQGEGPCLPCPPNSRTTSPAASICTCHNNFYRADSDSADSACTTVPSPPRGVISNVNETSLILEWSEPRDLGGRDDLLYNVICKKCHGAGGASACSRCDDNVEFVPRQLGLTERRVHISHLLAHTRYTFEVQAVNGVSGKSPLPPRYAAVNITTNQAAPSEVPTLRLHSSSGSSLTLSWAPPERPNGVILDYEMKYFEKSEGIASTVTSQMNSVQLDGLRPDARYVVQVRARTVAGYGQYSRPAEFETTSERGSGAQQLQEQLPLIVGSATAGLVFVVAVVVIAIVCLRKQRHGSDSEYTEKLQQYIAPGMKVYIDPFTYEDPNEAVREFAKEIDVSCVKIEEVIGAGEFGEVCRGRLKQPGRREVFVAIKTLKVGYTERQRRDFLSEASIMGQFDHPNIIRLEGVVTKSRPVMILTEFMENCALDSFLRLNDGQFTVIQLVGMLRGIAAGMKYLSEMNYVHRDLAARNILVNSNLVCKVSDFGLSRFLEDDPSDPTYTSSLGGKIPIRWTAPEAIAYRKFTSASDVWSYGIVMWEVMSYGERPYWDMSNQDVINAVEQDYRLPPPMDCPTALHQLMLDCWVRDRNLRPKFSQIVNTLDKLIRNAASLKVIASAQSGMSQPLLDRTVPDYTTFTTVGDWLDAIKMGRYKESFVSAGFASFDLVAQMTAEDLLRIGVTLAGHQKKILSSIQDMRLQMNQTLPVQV
Parameter Measured: residual activity (%)

O=C(N[C@@H](COc1ccc2[nH]c(=O)[nH]c2c1)c1ccccc1)c1cccn(Cc2ccc(F)c(F)c2)c1=O
114
NC(=O)c1cc2c(-c3cccc(-c4ccccc4)c3)cnc(N)c2s1
128
CCn1c(-c2nonc2N)nc2cncc(CNC3CCNCC3)c21
81
Cc1ccc(Sc2cnc(Nc3cccc(Br)n3)s2)cc1C(=O)N1CCN(C(=O)CN)CC1
22
Cc1ccc(-c2ccc3c(ccc4sc5c(c43)NC[C@@H](C)NC5=O)n2)cn1
98
C/C(=C1/C(=O)Nc2ccc(NC(N)=O)cc21)c1ccc[nH]1
101
NC(=O)c1cc(-c2ccnc(NC3CCCCC3)c2)nc(N2CCNCC2)c1
105
c1ccc2c(-c3cnn4cc(-c5ccc(N6CCNCC6)cc5)cnc34)ccnc2c1
88
CNC(=O)C1[C@H]2O[C@@](C)([C@@H]1N)n1c3ccccc3c3c4c(c5c6ccccc6n2c5c31)C(=O)NC4 (some centres undefined)
100

* * *

Catalogue of residual activity readings, one per entry.
molecular target: CLK2 (human) (UniProt P49760); assay: radiometric filter-binding kinase assay; details: compound 1.0 µM
Sequence (P49760 whole entry, looked up): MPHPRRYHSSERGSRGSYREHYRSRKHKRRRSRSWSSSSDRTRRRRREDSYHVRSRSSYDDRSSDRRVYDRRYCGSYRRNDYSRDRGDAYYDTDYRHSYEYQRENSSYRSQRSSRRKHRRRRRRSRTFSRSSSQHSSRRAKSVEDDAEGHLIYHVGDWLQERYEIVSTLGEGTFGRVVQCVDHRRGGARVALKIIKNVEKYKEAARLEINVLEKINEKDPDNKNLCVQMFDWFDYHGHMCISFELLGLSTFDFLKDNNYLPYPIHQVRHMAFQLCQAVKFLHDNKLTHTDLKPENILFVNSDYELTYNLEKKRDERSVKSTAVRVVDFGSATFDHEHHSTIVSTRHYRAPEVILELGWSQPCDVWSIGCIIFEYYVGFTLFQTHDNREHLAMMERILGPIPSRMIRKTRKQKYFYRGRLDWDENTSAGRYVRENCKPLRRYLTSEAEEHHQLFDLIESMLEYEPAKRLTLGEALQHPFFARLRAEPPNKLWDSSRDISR
Parameter Measured: residual activity (%)

NS(=O)(=O)OC[C@@H]1C[C@@H](n2ccc3c(N[C@H]4CCc5ccccc54)ncnc32)C[C@@H]1O
127
CCCCCc1ccc(/C=C/[C@H](O)[C@@H](CO)NC)cc1
104
Cc1ccc(=O)n(-c2ccccc2)c1
120
O=C(NOC[C@H](O)CO)c1ccc(F)c(F)c1Nc1ccc(I)cc1Cl
103
COc1ccc(-n2ncc3cnc(Nc4cc(OC)c(OC)c(OCCCN5CCN(C)CC5)c4)nc32)cc1
11
O=C(N[C@@H](COc1ccc2[nH]c(=O)[nH]c2c1)c1ccccc1)c1cccn(Cc2ccc(F)c(F)c2)c1=O
95
CCNc1nc(Nc2cc(F)c(C(=O)N3CCOCC3)cc2OC)ncc1C(F)(F)F
50

* * *

molecular target: MAP3K9 (human); test: radiometric filter-binding kinase assay; conditions: compound 1.0 µM
Parameter Measured: residual activity (%)

COc1cc2ncn(-c3cc(OCc4ccccc4S(C)(=O)=O)c(C#N)s3)c2cc1OC
28
O=C(N[C@@H](COc1ccc2[nH]c(=O)[nH]c2c1)c1ccccc1)c1cccn(Cc2ccc(F)c(F)c2)c1=O
102
CCNc1nc(Nc2cc(F)c(C(=O)N3CCOCC3)cc2OC)ncc1C(F)(F)F
25
NC(=O)c1c(NC(=O)C2CC2)sc2c1CCCC2
72
CNc1nc(-c2ccc3c(N)n[nH]c3c2)cc(N2C[C@@H](C(=O)NC3CCCCC3)CC[C@H]2C)n1
93
NS(=O)(=O)OC[C@@H]1C[C@@H](n2ccc3c(N[C@H]4CCc5ccccc54)ncnc32)C[C@@H]1O
82
COc1ccc(N(C(=O)Nc2c(C)cccc2C)c2cc(Nc3ccc(N4CCN(C)CC4)cc3)ncn2)c(OC)c1
42
NC(=O)c1ccc(-c2ccc(Oc3cncc4sc(-c5nn[nH]n5)cc34)cc2)cc1
95
O=C(NOCC(O)CO)c1ccc(F)c(F)c1Nc1ccc(I)cc1Cl (stereo not given)
84
CCCCCc1ccc(/C=C/[C@H](O)[C@@H](CO)NC)cc1
108
Cc1ccc(Sc2cnc(Nc3cccc(Br)n3)s2)cc1C(=O)N1CCN(C(=O)CN)CC1
69
Cc1cccc(-c2nn(C(=S)Nc3ccccc3)cc2-c2ccnc3ccccc23)n1
86
CN1C(=O)[C@@H](Cc2c[nH]c3ccccc23)NC1=S
100
NC1(c2ccc(-c3nc4ccn5c(=O)[nH]nc5c4cc3-c3ccccc3)cc2)CCC1
93
Cc1ccc(=O)n(-c2ccccc2)c1
95
Cc1cc(NC(=O)c2cccc(NC(=O)/C=C/CN(C)C)c2)ccc1Nc1nccc(-c2cccnc2)n1
88
O=C(O)c1cc(N=Nc2ccc(S(=O)(=O)Nc3ccccn3)cc2)ccc1O
105
O=C(Nc1nc2cc(C(F)(F)F)cc(NC3CC3)n2n1)c1cccnc1
75
NC(=O)c1cc(-c2ccnc(NC3CCCCC3)c2)nc(N2CCNCC2)c1
69
O=C(O)c1ccc(-c2c[nH]c3ncc(-c4ccccc4)cc23)cc1C1CCCC1
38
